Test system: Calu-3
Assay: cell viability relative to DMSO; higher = less toxic
Settings: 72 h; 100 nM
Would you kindly list cell viability for each of these compounds?
# unit: % | format: bare number

Input line: Calu-3 / cell viability / CC(=C(CCOC(=O)C(C)C)SSC(CCOC(=O)C(C)C)=C(C)N(C=O)Cc1cnc(C)nc1N)N(C=O)Cc1cnc(C)nc1N (stereo in doubt) : value?
Output line: 112

Input line: API: value(readout= cell viability, system= Calu-3, query= "CN(C)CC[C@@](O)(c1ccccc1)c1ccccc1Cl" )
Output line: 102

Input line: Calu-3 / cell viability / "Cc1cnc(-c2ccccc2C(C)C)nc1NCc1ccc(-n2ccnn2)cc1" : value?
Output line: 105

Input line: Identify the measured cell viability of "COc1cc2nccc(Oc3ccc(NC(=O)Nc4ccc(F)cc4F)c(F)c3)c2cc1OC" for Calu-3.
Output line: 86.8

###

For each of the compounds below, state its cell viability.
Tested on: Vero E6
Test: cell viability relative to DMSO; higher = less toxic
Conditions: 72 h; 10 nM
Write down the numeric answer in % and omit the unit.

Input line: Which cell viability value is on record for "CCCCc1nc(Cl)c(CO)n1Cc1ccc(-c2ccccc2-c2nnn[nH]2)cc1" ?
Output line: 102

Input line: Which measured cell viability value corresponds to "CC(C)[C@@H]1CC[C@@H](C)C[C@@H]1P(=O)(c1ccccc1)c1ccccc1" ?
Output line: 105

Input line: Entry "CCOC(=O)[C@H](CCc1ccccc1)N[C@@H](C)C(=O)N1Cc2ccccc2C[C@H]1C(=O)O" : reported cell viability = ?
Output line: 97.9

Input line: Item "CC[n+]1c(-c2ccccc2)c2cc(N)ccc2c2ccc(N)cc21" has what recorded cell viability?
Output line: 100

###

Provide the recorded cell viability for the entries that follow.
Tested on: HepG2
Test: cell viability relative to DMSO; higher = less toxic
Conditions: 72 h; 10000 nM
Report the value in % with no unit label.

Input line: // query cell viability value for entry "CCc1nc(N)nc(N)c1-c1ccc(Cl)cc1"
Output line: 77.9

Input line: I would be grateful if you could share the reported cell viability for "C[C@H]1NCc2cc(-c3ccc4c(=O)c(C(=O)O)cn(C5CC5)c4c3OC(F)F)ccc21" .
Output line: 99

Input line: What value of cell viability has been recorded for this entry: "CC(C)(C)c1ccc(CN(Cc2cccc(OCC(=O)O)c2)S(=O)(=O)c2cccnc2)cc1"
Output line: 93.6

Input line: Any idea what its cell viability is? The compound is "CCCCCCCC/C=C\CCCCCCCC(=O)NCCc1ccc(O)c(O)c1"
Output line: 56.3

Input line: What cell viability value was documented for this compound, "COc1c2occc2c(OC)c2c(=O)cc(C)oc12" ?
Output line: 90.1

Input line: cell viability for O=C(NCc1ccccc1)OCCO [buramate] ?
Output line: 85.8

Input line: Query: cell viability; subject: "CC(C)(C)c1cc(C(=O)/C(C#N)=N/Nc2cccc(Cl)c2)no1"
Output line: 31.2

Input line: // lookup cell viability for "CCOC(=O)Nc1ccc2c(c1)N(C(=O)CCN1CCOCC1)c1ccccc1S2"
Output line: 99.4

###

Test system: HepG2
Assay: cell viability relative to DMSO; higher = less toxic
Conditions: 72 h; 1000 nM
Hi there, I'd appreciate the recorded cell viability for every entry that follows.
Number only, in %; omit the unit.

Input line: Please look up its cell viability: "CC1(C)Oc2ccc(C#N)cc2[C@H](N(Cc2ncc[nH]2)c2ccc(Cl)cc2)[C@H]1O"
Output line: 103

Input line: Which cell viability is listed for CCCCC(CC)CCC(CC(C)C)OS(=O)(=O)O (stereo not given) [sodium-tetradecyl-sulfate] ?
Output line: 86.2

Input line: Entry "CCCCC/N=c1\ccn(Cc2ccccc2)c2ccccc12" has what cell viability?
Output line: 94.3

Input line: Which cell viability value belongs to NC(=O)N1c2ccccc2CC(O)c2ccccc21 (stereo not given) [licarbazepine] ?
Output line: 108

Input line: What value of cell viability has been recorded for this entry: O=C(NCc1ccccc1)OCCO [buramate]
Output line: 86.8

###

Test system: Calu-3
Experiment: cell viability relative to DMSO; higher = less toxic
Conditions: 72 h; 1 nM
Structures can show the parent of a compound that is named as a salt.
Kindly state cell viability for each of the entries shown.
Express it in %; write the number only.

Input line: Tell me the measured cell viability of "CC(C)c1onc(-c2c(Cl)cccc2Cl)c1COc1ccc(/C=C/c2cccc(C(=O)O)c2)c(Cl)c1" , please.
Output line: 93.9

Input line: What measured cell viability goes with C[N@+]1(CC2CC2)CC[C@]23c4c5ccc(O)c4O[C@H]2C(=O)CC[C@@]3(O)[C@H]1C5 [methylnaltrexone] ?
Output line: 104

Input line: For the molecule shown here, CC(C)(C)[C@]1(O)CC2OC(=O)CC23C(=O)OC2OC(=O)[C@H](O)C231 (stereo partly drawn) [bilobalide] , give the reported cell viability.
Output line: 101

Input line: // cell viability lookup, key: COc1ccc(/C=C/C(=O)O)cc1 [trans-4-methoxycinnamic-acid]
Output line: 103

Input line: Need cell viability of "CN1CCN(CCc2ccc(Cl)c(Cl)c2)CC1" , thanks.
Output line: 91.3

Input line: Report cell viability for COC(=O)C(c1ccccc1)C1CCCCN1 (stereo not drawn) [METHYLPHENIDATE HYDROCHLORIDE] please.
Output line: 100

Input line: If you can, please state the reported cell viability value of "Cn1cnc(-c2cc3nccc(Oc4ccc(NC(=S)NC(=O)Cc5ccccc5)cc4F)c3s2)c1" .
Output line: 96.6

Input line: Quick one: cell viability for "O=C(O)c1ccccc1Nc1cccc(C(F)(F)F)c1" ?
Output line: 101

###

Test system: U2OS
Experiment: cell viability relative to DMSO; higher = less toxic
Settings: 72 h; 1 nM
measurement label: cell viability

Input line: Name the recorded cell viability for CCOC(=O)CCNc1cc(N2CCc3ccccc3CC2)nc(-c2ccccn2)n1 [GSK-J4] .
Output line: 97.8%

Input line: Fill in: cell viability of Cn1cc(-c2cnc3ccc4ccc(CS(=O)(=O)NCc5ccccn5)cc4c(=O)c3c2)cn1 [MK-8033] is ___
Output line: 97.6%

Input line: Recorded cell viability of CCCN1CCC[C@@H]2Cc3n[nH]cc3C[C@H]21 [quinpirol-(-)] , please.
Output line: 92.5%

###

Test system: HepG2
Assay: drug sensitivity score (DSS) for viability; higher = more toxic; extreme values may be limits of the assay
Details: 72 h
measurement label: drug sensitivity score
A bare number is all that is needed in reply.

Input line: Given CC1(C)O[C@@H]2C[C@H]3[C@@H]4CCC5=CC(=O)C=C[C@]5(C)[C@H]4[C@@H](O)C[C@]3(C)[C@]2(C(=O)CO)O1 [desonide] , state its recorded drug sensitivity score.
Output line: 0

Input line: For the compound shown here, CCCC(=O)OCOC(=O)C1=C(C)NC(C)=C(C(=O)OC)C1c1cccc(Cl)c1Cl (stereo not drawn) , give the reported drug sensitivity score.
Output line: 0

Input line: Give the measured drug sensitivity score of "Cn1cc(-c2cnc3ccc4ccc(CS(=O)(=O)NCc5ccccn5)cc4c(=O)c3c2)cn1" .
Output line: 3.2

Input line: Fill blank: measured drug sensitivity score of the compound CCCC[C@H](NC(C)=O)C(=O)N[C@H]1CC(=O)NCCCC[C@@H](C(=O)O)NC(=O)[C@H](Cc2c[nH]c3ccccc23)NC(=O)[C@H](CCCNC(=N)N)NC(=O)[C@@H](Cc2ccccc2)NC(=O)[C@H](Cc2c[nH]cn2)NC1=O [bremelanotide] is ____.
Output line: 0

Input line: For the compound shown here, "COc1ccc2nc3ccc(Cl)cc3c(SCCCN)c2c1" , give the reported drug sensitivity score.
Output line: 0

Input line: Entry N[C@@H](C(=O)O)c1nn[nH]n1 (racemic) [tetrazol-5-yl-glycine-(RS)] : reported drug sensitivity score = ?
Output line: 0

Input line: Name the recorded drug sensitivity score for "Cc1ncc(CSSCc2cnc(C)c(O)c2CO)c(CO)c1O" .
Output line: 0

Input line: What does the data say about its drug sensitivity score? Entry: "N[C@@H](CCNCc1ccc(Cl)cc1)C(=O)N1CCCCC1"
Output line: 0

Input line: Endpoint output: drug sensitivity score of "CCC(=O)NC[C@H](Cc1ccc(OCCc2nc(-c3ccccc3)oc2C)cc1)N/C(C)=C\C(=O)c1ccc(C(F)(F)F)cc1" . Value?
Output line: 0

Input line: Form field: reported drug sensitivity score of "CCCCCOc1ccc(-c2ccc(-c3ccc(C(=O)N[C@H]4C[C@@H](O)[C@@H](O)NC(=O)[C@@H]5[C@@H](O)[C@@H](C)CN5C(=O)[C@H]([C@@H](C)O)NC(=O)[C@H]([C@H](O)[C@@H](O)c5ccc(O)cc5)NC(=O)[C@@H]5C[C@@H](O)CN5C(=O)[C@H]([C@@H](C)O)NC4=O)cc3)cc2)cc1"
Output line: 1.9

Input line: Please report the recorded drug sensitivity score for CCOC(=O)CCC(=O)O[C@H]1[C@H](O[C@@H]2[C@@H](C)[C@H](O[C@H]3C[C@@](C)(OC)[C@@H](O)[C@H](C)O3)[C@@H](C)C(=O)O[C@H](CC)[C@@](C)(O)[C@H](O)[C@@H](C)C(=O)[C@H](C)C[C@@]2(C)O)O[C@H](C)C[C@@H]1N(C)C [erythromycin-ethylsuccinate] .
Output line: 0

Input line: For the compound "CS(=O)(=O)c1ccc([C@@H](O)[C@@H](CO)NC(=O)C(Cl)Cl)cc1" , what drug sensitivity score is on record?
Output line: 1.4

Input line: Which drug sensitivity score value is on record for "O=C1NC(=O)C(c2ccccc2)(c2ccccc2)N1" ?
Output line: 0
